Where do these numbers come from? They come from PubChem BioAssay (NCATS).

- procedure_details: qHTS assay for cell viability of HEK293 cells (AID 743288); further: on the % scale 0 is the no-effect control and ±100 the full control effect; nearly all actives have a fitted effect of over 50% in size
- conditions_used: ATP luminescence (CellTiter-Glo), 18 h, stronger effect = lower value
Results filed as inconclusive are left out. The source made the active and inactive calls. The call rests on the fitted dose curve; in most records, active means well fitted cell-killing curve with a large enough effect; inconclusive means small, poorly fitted or top-dose-only effect, or effect the other way; inactive means flat fitted curve, though single readings scatter.
measurement_kind: max response

Answered examples (5):
compound	max response
[Cl][In]([Cl])[Cl]	7.88% (inactive)
CNC(=O)Oc1ccc2c(c1)[C@]1(C)CCN(C)[C@@H]1N2C	-7.46% (inactive)
CCCCCCCCCCCCOS(=O)(=O)O	-2.66% (inactive) [middle of 4 runs]
CCCc1c(OCCCCc2nn[nH]n2)ccc(C(C)=O)c1O	-7.07% (inactive)
O=C1NS(=O)(=O)c2ccccc21	0.942% (inactive)

Param item = `Oc1cccc(O)c1` ; retrieve measured max response.
11.8% (inactive)

Param item = `NC(=O)c1ncn([C@@H]2O[C@H](CO)[C@@H](O)[C@H]2O)n1` ; retrieve measured max response.
-7.49% (inactive)

Param item = `O=C1c2c(O)cccc2Cc2cccc(O)c21` ; retrieve measured max response.
-1.66% (inactive)

Param item = CN(C)CCOC(C)(c1ccccc1)c1ccccn1 (stereo not given) ; retrieve measured max response.
-4.19% (inactive)

Param item = `Cc1cc2nc3c(=O)[nH]c(=O)nc-3n(C[C@H](O)[C@H](O)[C@H](O)CO)c2cc1C` ; retrieve measured max response.
-6.02% (inactive)

---

- target_or_test_system: Guanidinoacetate N-methyltransferase (Homo sapiens)
- procedure_details: Confirmatory Screen for Target Class Profiling of Small Molecule Inhibitors of Methyltransferases (AID 1745852); further: on the % scale 0 is the no-effect control and ±100 the full control effect
- conditions_used: MTase-Glo luminescence, SAH detection, recombinant enzyme; at 57.3 µM (top of the series)
Quick reference: activity change, negative = inhibition of the listed items.
Unit % implied. Number only.

Answered examples (5):
smiles_code	target_or_test_system	activity change, negative = inhibition, %
Cc1ccc2nc(N)[nH]c(=O)c2c1Sc1ccncc1	Guanidinoacetate N-methyltransferase (Homo sapiens)	2.89
CN(C)CC[C@@H](c1ccc(Cl)cc1)c1ccccn1	Guanidinoacetate N-methyltransferase (Homo sapiens)	2.46
C[C@]12CC[C@@H]3c4ccc(O)cc4CC[C@H]3[C@@H]1CCC2=O	Guanidinoacetate N-methyltransferase (Homo sapiens)	-1.67
NC(N)=NCCC[C@H](N)C(=O)O	Guanidinoacetate N-methyltransferase (Homo sapiens)	-1.16
Cc1cc(N)c2ccccc2[n+]1CCCCCCCCCC[n+]1c(C)cc(N)c2ccccc21	Guanidinoacetate N-methyltransferase (Homo sapiens)	-0.381

// switching to the query compound
Param item = `CC(C)(C)[C@]1(O)CCN2C[C@H]3c4ccccc4CCc4cccc(c43)[C@@H]2C1` ; retrieve measured activity change, negative = inhibition.
6.2

---

- procedure_details: qHTS assay for environmental chemicals that activate the Aryl hydrocarbon Receptor (AhR) signaling pathway (AID 651777); further: % of control where 0% means no effect; nearly all actives have a fitted effect of over 15% in size
- conditions_used: 1A2-DRE human hepatoma cells, luciferase, 24 h; stronger effect = higher value
Results filed as inconclusive are left out. Active and inactive are the calls of the source. Calls follow the shape of the dose curve; as a rule, active = well fitted activation curve with a large enough effect; inconclusive = small, poorly fitted or top-dose-only effect; inactive = flat fitted curve, though single readings scatter.
measurement_kind: activation

compound	endpoint_result
CC(O)CN(CCN(CC(C)O)CC(C)O)CC(C)O (stereo not drawn)	0.546% (inactive)
COC(=O)C1=C(C)NC(C)=C(C(=O)OC)C1c1ccccc1[N+](=O)[O-]	3.95% (inactive)
Cc1cccc(Nc2cc(Cl)nc(SCC(=O)O)n2)c1C	-1.86% (inactive)
CNC(=O)Oc1ccc2c(c1)[C@]1(C)CCN(C)[C@@H]1N2C	2.6% (inactive)
Oc1cccc(O)c1	2.18% (inactive)
CC(O)COc1ccccc1 (stereo not drawn)	1.38% (inactive)
O=C1c2c(O)cccc2Cc2cccc(O)c21	-0.232% (inactive)
CCCCCCCCCCCCOS(=O)(=O)O	1.08% (inactive) [middle of 4 runs]
CN(C)CCCN1c2ccccc2CCc2ccccc21	-0.861% (inactive)
CCOC(=O)c1ccc(O)cc1	6.21% (inactive)

Param item = `CC12CCC(CC1)C(C)(C)O2` ; retrieve measured activation.
-0.144% (inactive)

Param item = `CC1(C)[C@@H]2CC[C@@]1(C)C(=O)C2` ; retrieve measured activation.
1.1% (inactive)

Param item = `[Cl][In]([Cl])[Cl]` ; retrieve measured activation.
0.307% (inactive)
